Every entry's value here was drawn from patent US20180112008A1.

Molecular target: T1, (GlcNAc2)2-18-mer glycopeptide, unconjugated (human)
T1 construct: Used in ELISA without KLH; also called 18-mer(chitobiose)2[C-T22-V38]; 18mer-chitobiose peptide
T1 peptide: Ac-CTRN(GlcNAc2)GTQLQN(GlcNAc2)FTLDRSSV-NH2
Test: ELISA 12/24/13 (sups from time of freezing), dilution 400, column 18S
* marks the point of attachment. GlcNAc2 = N-linked chitobiose, CC(=O)N[C@@H]1[C@@H](O)[C@H](O[C@@H]2O[C@H](CO)[C@@H](O)[C@H](O)[C@H]2NC(C)=O)[C@@H](CO)O[C@H]1*
Observed Property: ELISA signal
Respond with the number and no other words.

I am curious: what ELISA signal value has been reported for 16C5.C1 (antibody, V domains shown, Mouse monoclonal from a hybridoma) VH: QVTLKESGPGILQPSQTLSLTCSFSGFSLNTLGMGVGWIRQPSGKGLEWLAHIWWDDDKYYYPALKSRLTISRDTSKNQVFLKIANVDTADTATYYCARIGTAQATDALDYWGQGTSVTVSS VL: ELDMTQTPPSLSASVGETVRIRCLASEDIYSGISWYQQKPGKPPTLLIYGASNLESGVPPRFSGSGSGTDYTLTIGGVQAEDAATYYCLGGYSYSSTLTFGAGTNVEIK ?
0.68

I am curious: what ELISA signal value has been reported for 7B12.B3 (antibody, V domains shown, Mouse monoclonal from a hybridoma; also called MUC16 Glycosylation Antibody 7B12) VH: QVTLKESGPGILQPSQTLSLTCSFSGFSLSTVGMGVGWSRQPSGKGLEWLAHIWWDDEDKYYNPALKSRLTISKDTSKNQVFLKIANVDTADSATYYCTRIGTAQATDALDYWGQGTSVTVSS VL: DIVMTQAAPSVSVTPGESVSISCRSSKSLRKSNGNTYLYWFLQRPGQSPQRLIYYMSNLASGVPDRFSGRGSGTDFTLRISRVEAEDVGVYYCMQSLEYPLTFGGGTKLKIK ?
0.51

I am curious: what ELISA signal value has been reported for 18C6.D12 (antibody, V domains shown, Mouse monoclonal from a hybridoma; also called MUC16 Glycosylation Antibody 18C6) VH: QVTLKESGPGILQPSQTLSLTCSFSGFSLSTVGMGVGWSRQPSGKGLEWLAHIWWDDEDKYYNPALKSRLTISKDTSKNQVFLKIANVDTADTATYYCTRIGTAQATDALDYWGQGTSVTVSS VL: DIVMTQAAPSVPVTPGESVSISCRSSKSLLHSNGNTYLYWFLQRPGQSPQRLIYYMSNLASGVPDRFSGRGSGTDFTLRISRVEAEDVGVYYCMQSLEYPLTFGGGTKLEIK ?
0.55

I am curious: what ELISA signal value has been reported for 19C11.H6 (antibody, V domains shown, Mouse monoclonal from a hybridoma; Used as 89Zr-DFO-labelled antibody in the internalization assay; also called MUC16 Glycosylation Antibody 19C11) VH: QVNLKESGPGKLQPSQTLSLTCSFSGFSLSTLGMGVGWIRQSSGKGLEWLAHIWWDDDKYYNPALKSRLTISRATSKNQVFLKIVNVGTADTATYYCARIGTAQATDALDYWGQGTSVTVSS VL: DIVMTQAAPSIPVTPGESVSISCRSSKSLLHSNGNTYLYWFLQRPGQSPQRLIYYMSNLASGVPDRFSGRGSGTDFTLKISRVEAGDVGVYYCMQGLEHPLTFGGGTKLEIK ?
0.36
